Every entry's value here was drawn from paper PMC9441147.

- experiment-summary: Lung and plasma PK after single intratracheal dose in treatment-naïve rats
- Type: in vivo
- experimental-setup: rat, plasma, inhaled or intranasal
metric-name: half-life

Tell me measured half-life for "COC[C@H](C(=O)Nc1cccc2c(-c3nc(Nc4cccc(S(C)(=O)=O)c4F)ncc3F)c[nH]c12)N1CCN(C)CC1" please.
~300 min

----------
- Test system: IL-4-induced STAT6 phosphorylation in human CD4+ T cells
- experiment-summary: IL-4-induced STAT6 phosphorylation, flow cytometry
- Format: cell-based
- experimental-setup: read-out: IC50, IL-4, STAT6
metric-name: IC50

Give the value of IC50 reported for the following: COC[C@H](C(=O)Nc1cccc2c(-c3nc(Nc4cccc(S(C)(=O)=O)c4F)ncc3F)c[nH]c12)N1CCN(C)CC1 [AZD4604]
16.9 nM

----------
- experiment-summary: Lung and plasma PK after single intratracheal dose in treatment-naïve rats
- Format: in vivo
- experimental-setup: rat, lung, inhaled or intranasal
metric-name: half-life

Provide only the value of recorded half-life for "COC[C@H](C(=O)Nc1cccc2c(-c3nc(Nc4cccc(S(C)(=O)=O)c4F)ncc3F)c[nH]c12)N1CCN(C)CC1"
~5 h

----------
- experiment-summary: Caco-2 permeability, pH 6.5
- Type: in vitro ADME
- experimental-setup: human, Caco-2, pH 6.5
metric-name: Papp
Remember to put the unit after the number in your answer.

Give me measured Papp, please, for this compound: "COC[C@H](C(=O)Nc1cccc2c(-c3nc(Nc4cccc(S(C)(=O)=O)c4F)ncc3F)c[nH]c12)N1CCN(C)CC1"
6.7 ×10⁻⁶ cm/s

----------
- experiment-summary: Thermodynamic solubility, pH 7.4
- Assay type: physicochemical
metric-name: solubility thermodynamic (µM)
Expressed in µM, but write only the number.

Give the measured solubility thermodynamic for "COC[C@H](C(=O)Nc1cccc2c(-c3nc(Nc4cccc(S(C)(=O)=O)c4F)ncc3F)c[nH]c12)N1CCN(C)CC1"
6.6
